Test system: MCF7
Assay: Antiproliferative activity against human MCF7 cells assessed as growth inhibition at 0.2 uM measured after 72 hrs by MTT assay
Type: functional
Details: read-out: GI
measured_endpoint: inhibition of growth at 0.2 µM

See these solved cases before continuing.
CC(C)(C)NC(=O)CC[C@H](NC(=O)CCNC(=O)CCl)C(=O)N[C@@H](Cc1ccc2ccccc2c1)C(=O)NCc1cccc2ccccc12; 25%
COc1ccc(C[C@H](NC(=O)[C@H](C)NC(=O)CN2CCOCC2)C(=O)NC(Cc2ccccc2)C(=O)[C@@]2(C)CO2)cc1 (some centres undefined); < 20%

Query block: For the compound Cc1ccc(CNC(=O)[C@H](Cc2ccccc2)NC(=O)[C@H](CCC(=O)NC(C)(C)C)NC(=O)[C@H](CNC(=O)CCl)NS(=O)(=O)c2ccc(C)cc2)cc1 , what inhibition of growth at 0.2 µM is on record?
Result block: < 20%

Query block: For the compound Cc1ccc(CNC(=O)[C@H](Cc2cccc(F)c2)NC(=O)[C@H](CCC(=O)NC(C)(C)C)NC(=O)CCNC(=O)CCl)cc1 , what inhibition of growth at 0.2 µM is on record?
Result block: < 20%

----------
Target: Proteasome subunit beta type-8 (Homo sapiens, UniProt P28062)
Sequence (P28062 whole entry): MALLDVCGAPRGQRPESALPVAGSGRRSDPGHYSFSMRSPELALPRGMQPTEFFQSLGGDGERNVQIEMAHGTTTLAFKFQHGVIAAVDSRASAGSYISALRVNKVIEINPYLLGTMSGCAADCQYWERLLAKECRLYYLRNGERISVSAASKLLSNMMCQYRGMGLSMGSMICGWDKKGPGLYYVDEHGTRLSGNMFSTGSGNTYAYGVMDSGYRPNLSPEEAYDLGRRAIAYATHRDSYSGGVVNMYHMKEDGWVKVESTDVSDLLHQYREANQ
Test: Inhibition of 20S proteasome subunit beta-5i (unknown origin) using Ac-ANW-AMC as substrate and measured after 30 mins
Parameter: pIC50. Scope: all listed entries.
The read-out pIC50 is expressed as -log10 of concentration in moles per litre.

See these solved cases before continuing.
Cc1[nH]c2ccc(CNC(=O)[C@H](Cc3ccccc3)NC(=O)[C@H](CCC(=O)NC(C)(C)C)NC(=O)CCNC(=O)CCl)cc2c1C; 7.44
CC(C)(C)NC(=O)CC[C@H](NC(=O)CCNC(=O)CCl)C(=O)N[C@@H](Cc1ccccc1)C(=O)NCc1cccc(C(F)(F)F)c1; 6.90
COC[C@H](NC(=O)[C@H](CCC(=O)NC(C)(C)C)NC(=O)CCNC(=O)CCl)C(=O)NCc1ccc(C)cc1; 7.36
Cc1ccc(CNC(=O)[C@H](Cc2c[nH]c3ccccc23)NC(=O)[C@H](CCC(=O)NC(C)(C)C)NC(=O)CCNC(=O)CCl)cc1; 8.13
Cc1ccc(CNC(=O)CNC(=O)[C@H](CCC(=O)NC(C)(C)C)NC(=O)CCNC(=O)CCl)cc1; 6.20

Query block: For the compound COC(=O)C1CCN(C(=O)C[C@H](NC(=O)[C@H](CNC(=O)CCl)NC(=O)CN2CCOCC2)C(=O)N[C@@H](Cc2ccccc2)C(=O)NCc2ccc(C)cc2)CC1 , what pIC50 is on record?
Result block: 6.19

Query block: For the compound Cc1ccc(CNC(=O)[C@H](Cc2ccccc2)NC(=O)[C@H](CCC(=O)NC(C)(C)C)NC(=O)CCNC(=O)/C(C#N)=C/C2CC2)cc1 , what pIC50 is on record?
Result block: 8.02

----------
System: Pfeiffer
Test: Antiproliferative activity against human Pfeiffer cells assessed as growth inhibition at 0.2 uM measured after 72 hrs by MTT assay
Format: functional
Details: read-out: GI
measured_endpoint: inhibition of growth at 0.2 µM (%)
Expressed in %, but write only the number.

Cc1ccc(CNC(=O)[C@H](Cc2ccccc2)NC(=O)[C@H](CCC(=O)NC(C)(C)C)NC(=O)[C@H](CNC(=O)CCl)NS(=O)(=O)c2ccc(C)cc2)cc1; 26

Query block: For the molecule Cc1ccc(CNC(=O)[C@H](Cc2ccccc2)NC(=O)[C@H](CCC(=O)NC(C)(C)C)NC(=O)CCNC(=O)/C(C#N)=C/c2nccs2)cc1 , what inhibition of growth at 0.2 µM is on record?
Result block: 22

Query block: For the molecule COc1ccc(C[C@H](NC(=O)[C@H](CCC(=O)NC(C)(C)C)NC(=O)CCNC(=O)CCl)C(=O)NCc2ccc(C)cc2)cc1 , what inhibition of growth at 0.2 µM is on record?
Result block: 28

Query block: For the molecule Cc1ccc(/C=C(\C#N)C(=O)NCCC(=O)N[C@@H](CCC(=O)NC(C)(C)C)C(=O)N[C@@H](Cc2ccccc2)C(=O)NCc2ccc(C)cc2)cc1 , what inhibition of growth at 0.2 µM is on record?
Result block: 29

Query block: For the molecule Cc1ccc(CNC(=O)[C@H](Cc2ccccc2)NC(=O)[C@H](CCC(=O)NC(C)(C)C)NC(=O)CCNC(=O)/C(C#N)=C/c2ccc(Cl)cc2)cc1 , what inhibition of growth at 0.2 µM is on record?
Result block: 34

Query block: For the molecule CC(C)(C)NC(=O)CC[C@H](NC(=O)CCNC(=O)/C(C#N)=C/c1ccc(Cl)cc1)C(=O)N[C@@H](Cc1ccccc1)C(=O)NCc1cccc2ccccc12 , what inhibition of growth at 0.2 µM is on record?
Result block: 32

----------
Biological target: Proteasome subunit beta type-8 (Homo sapiens, UniProt P28062)
Test: Inhibition of 20S proteasome subunit beta-5i (unknown origin) using Ac-ANW-AMC as substrate and measured after 30 mins
Parameter: pIC50. Scope: all listed entries.
The read-out pIC50 is expressed as -log10 of concentration in moles per litre.

See these solved cases before continuing.
CC[C@H](NC(=O)[C@H](CCC(=O)NC(C)(C)C)NC(=O)CCNC(=O)CCl)C(=O)NCc1ccc(C)cc1; 7.21
Cc1ccc(CNC(=O)[C@H](Cc2ccccc2)NC(=O)[C@H](CC(N)=O)NC(=O)[C@H](CNC(=O)CCl)NC(=O)CN2CCOCC2)cc1; 5.56
Cc1ccc(CNC(=O)[C@H](Cc2ccccc2)NC(=O)[C@H](CCC(=O)NC(C)(C)C)NC(=O)CCNC(=O)/C(C#N)=C/c2ccco2)cc1; 8.53
Cc1ccc(CNC(=O)[C@H](Cc2cccc(F)c2)NC(=O)[C@H](CCC(=O)NC(C)(C)C)NC(=O)CCNC(=O)CCl)cc1; 8.19

Query block: For the compound Cc1ccc(CNC(=O)[C@H](Cc2ccccc2)NC(=O)[C@H](CC(=O)NCC2CCCO2)NC(=O)[C@H](CNC(=O)CCl)NC(=O)CN2CCOCC2)cc1 (some centres not stated) , what pIC50 is on record?
Result block: 6.86

Query block: For the compound CC(C)(C)NC(=O)CC[C@H](NC(=O)CCNC(=O)CCl)C(=O)N[C@@H](Cc1ccccc1)C(=O)NCc1cccc2ccccc12 , what pIC50 is on record?
Result block: 8.42

Query block: For the compound Cc1ccc(CNC(=O)CNC(=O)[C@H](CCC(=O)NC(C)(C)C)NC(=O)[C@H](CNC(=O)CCl)NC(=O)CN2CCOCC2)cc1 , what pIC50 is on record?
Result block: 7.02

----------
Target: Proteasome Macropain subunit MB1 (Homo sapiens, UniProt P28074)
Sequence (P28074 whole entry): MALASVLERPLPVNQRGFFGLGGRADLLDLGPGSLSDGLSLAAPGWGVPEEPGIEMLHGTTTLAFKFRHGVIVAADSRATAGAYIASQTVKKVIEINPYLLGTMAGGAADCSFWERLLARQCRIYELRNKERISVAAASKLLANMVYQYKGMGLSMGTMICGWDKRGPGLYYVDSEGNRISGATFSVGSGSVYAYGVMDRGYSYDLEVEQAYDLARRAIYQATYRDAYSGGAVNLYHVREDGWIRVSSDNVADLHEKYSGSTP
Assay: Inhibition of 20S proteasome subunit beta-5c (unknown origin) using Ac-WLA-AMC as substrate and measured after 30 mins
measured_endpoint: IC50

CC(C)(C)NC(=O)CC[C@H](NC(=O)CCNC(=O)CCl)C(=O)N[C@@H](Cc1ccccc1)C(=O)NCc1ccc(OC(F)(F)F)cc1; > 5 µM

Query block: For the compound Cc1ccc(CNC(=O)[C@H](Cc2ccccc2)NC(=O)[C@H](CC(N)=O)NC(=O)[C@H](CNC(=O)CCl)NC(=O)CN2CCOCC2)cc1 , what IC50 is on record?
Result block: > 10 µM

Query block: For the compound COC(=O)C1CCN(C(=O)C[C@H](NC(=O)[C@H](CNC(=O)CCl)NC(=O)CN2CCOCC2)C(=O)N[C@@H](Cc2ccccc2)C(=O)NCc2ccc(C)cc2)CC1 , what IC50 is on record?
Result block: > 0.644 µM

Query block: For the compound CC(C)(C)NC(=O)CC[C@H](NC(=O)CCNC(=O)CCl)C(=O)N[C@@H](Cc1ccccc1)C(=O)NCc1ccccc1C(F)(F)F , what IC50 is on record?
Result block: > 5 µM

Query block: For the compound Cc1ncsc1-c1ccc(CNC(=O)[C@H](Cc2ccccc2)NC(=O)[C@H](CCC(=O)NC(C)(C)C)NC(=O)CCNC(=O)CCl)cc1 , what IC50 is on record?
Result block: > 5 µM

----------
Test: Selectivity ratio of IC50 for inhibition of 20S proteasome beta 5c subunit (unknown origin) to IC50 for inhibition of 20S proteasome subunit beta-5i
measured_endpoint: Ratio IC50
Write the value as a bare number.

See these solved cases before continuing.
CC(C)(C)NC(=O)CC[C@H](NC(=O)CCNC(=O)CCl)C(=O)N[C@@H](Cc1ccccc1)C(=O)NCc1cccc(C(F)(F)F)c1; 22
Cc1ccc(CNC(=O)[C@H](Cc2ccccc2)NC(=O)[C@H](CCC(=O)NC(C)(C)C)NC(=O)[C@H](CNC(=O)CCl)NC(=O)OC(C)(C)C)cc1; 6

Query block: For the molecule COC[C@H](NC(=O)[C@H](CCC(=O)NC(C)(C)C)NC(=O)CCNC(=O)CCl)C(=O)NCc1ccc(C)cc1 , what Ratio IC50 is on record?
Result block: 2

Query block: For the molecule Cc1ccc(CNC(=O)[C@H](Cc2c[nH]c3ccccc23)NC(=O)[C@H](CCC(=O)NC(C)(C)C)NC(=O)CCNC(=O)CCl)cc1 , what Ratio IC50 is on record?
Result block: 2

Query block: For the molecule Cc1ccc(CNC(=O)[C@H](Cc2ccccc2)NC(=O)[C@H](CCC(=O)NC(C)(C)C)NC(=O)[C@H](CNC(=O)CCl)NC(=O)C(=O)c2c[nH]c3ccccc23)cc1 , what Ratio IC50 is on record?
Result block: 2

Query block: For the molecule Cn1ncc2cc(CNC(=O)[C@H](Cc3ccccc3)NC(=O)[C@H](CCC(=O)NC(C)(C)C)NC(=O)CCNC(=O)CCl)ccc21 , what Ratio IC50 is on record?
Result block: 3

Query block: For the molecule CC(C)(C)NC(=O)CC[C@H](NC(=O)CCNC(=O)/C(C#N)=C/c1ccc(Cl)cc1)C(=O)N[C@@H](Cc1ccc2ccccc2c1)C(=O)NCc1cccc2ccccc12 , what Ratio IC50 is on record?
Result block: 222

Query block: For the molecule Cc1ccc(CNC(=O)[C@H](Cc2cccc(F)c2)NC(=O)[C@H](CCC(=O)NC(C)(C)C)NC(=O)CCNC(=O)CCl)cc1 , what Ratio IC50 is on record?
Result block: 20

Cited source: ChEMBL document CHEMBL5154800
